- target system: Human recombinant MMP-13 (Homo sapiens)
- Construct: made in house; host or cells: baculovirus / insect cells
- protocol: In vitro MMP inhibition analysis (fluorogenic peptide substrate cleavage), Ki
- Type: biochemical
- applied conditions: Table 2
pKi: −log10 of the molar value.
Label Y for high-side pKi (at or above 10) and N for low-side pKi (below it).

Worked set:
molecule	group label
CCc1cnc(-c2ccc(S(=O)(=O)C3(C(=O)NO)CCOCC3)cc2)nc1	N
CC(C)CC#Cc1cnc(-c2ccc(S(=O)(=O)C3(C(=O)NO)CCOCC3)cc2)cn1	Y
O=C(NO)C1(S(=O)(=O)c2ccc(-c3cnc(OCCCC(F)(F)F)cn3)cc2)CCOCC1	Y

We next turn to a different molecule, shown below.
Qu. Is pKi at least 10? Consider CC(C)CCc1cnc(-c2ccc(S(=O)(=O)C3(C(=O)NO)CCOCC3)cc2)cn1
Ans. N

----------
- target system: Human recombinant MMP-1 (Homo sapiens, UniProt P03956)
- Construct: made in house; host or cells: MMP-1-transfected HT-1080 cells (spent media)
- Sequence (P03956 100-469): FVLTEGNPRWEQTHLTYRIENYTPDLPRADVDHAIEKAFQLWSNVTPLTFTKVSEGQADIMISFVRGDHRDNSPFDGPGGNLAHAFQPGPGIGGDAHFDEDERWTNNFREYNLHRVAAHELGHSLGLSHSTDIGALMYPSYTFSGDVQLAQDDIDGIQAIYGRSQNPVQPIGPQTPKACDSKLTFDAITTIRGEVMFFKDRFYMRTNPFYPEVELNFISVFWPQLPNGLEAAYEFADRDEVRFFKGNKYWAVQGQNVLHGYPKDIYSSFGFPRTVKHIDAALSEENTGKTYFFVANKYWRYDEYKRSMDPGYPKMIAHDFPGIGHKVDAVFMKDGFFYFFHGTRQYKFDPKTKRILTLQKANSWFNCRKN
- protocol: In vitro MMP inhibition analysis (fluorogenic peptide substrate cleavage), Ki
- Type: biochemical
- applied conditions: Table 2
pKi: −log10 of the molar value.
Label rule met when pKi is at or above 6; otherwise label rule not met.

smiles text	target system	group label
O=C(NO)C1(S(=O)(=O)c2ccc(-c3ccc(OCCCC(F)(F)F)cn3)cc2)CCOCC1	Human recombinant MMP-1 (Homo sapiens, UniProt P03956)	rule met
C#CCN(C)C(=O)c1ccc2cc(-c3ccc(S(=O)(=O)C4(C(=O)NO)CCOCC4)cc3)ccc2c1	Human recombinant MMP-1 (Homo sapiens, UniProt P03956)	rule not met
COCCOc1ccc(-c2ccc(S(=O)(=O)C3(C(=O)NO)CCN(CCOC)CC3)cc2)cc1	Human recombinant MMP-1 (Homo sapiens, UniProt P03956)	rule not met
O=C(NCC(F)(F)C(F)(F)F)c1cnc(-c2ccc(S(=O)(=O)C3(C(=O)NO)CCOCC3)cc2)cn1	Human recombinant MMP-1 (Homo sapiens, UniProt P03956)	rule not met
O=C(Cc1ccc(-c2ccc(S(=O)(=O)C3(C(=O)NO)CCOCC3)cc2)nc1)N1CCCCC1	Human recombinant MMP-1 (Homo sapiens, UniProt P03956)	rule not met

Then there is this compound:
Qu. Could you tell me if the measured pKi of CCc1csc(Nc2ccc(-c3ccc(S(=O)(=O)C4(C(=O)NO)CCOCC4)cc3)cc2)n1 reaches 6 or more?
Ans. rule not met

----------
- target system: Human recombinant MMP-9 (Homo sapiens, UniProt P14780)
- Construct: made in house; host or cells: MMP-9-transfected HT1080 cells (spent media)
- Sequence (P14780 107-707 limits assumed): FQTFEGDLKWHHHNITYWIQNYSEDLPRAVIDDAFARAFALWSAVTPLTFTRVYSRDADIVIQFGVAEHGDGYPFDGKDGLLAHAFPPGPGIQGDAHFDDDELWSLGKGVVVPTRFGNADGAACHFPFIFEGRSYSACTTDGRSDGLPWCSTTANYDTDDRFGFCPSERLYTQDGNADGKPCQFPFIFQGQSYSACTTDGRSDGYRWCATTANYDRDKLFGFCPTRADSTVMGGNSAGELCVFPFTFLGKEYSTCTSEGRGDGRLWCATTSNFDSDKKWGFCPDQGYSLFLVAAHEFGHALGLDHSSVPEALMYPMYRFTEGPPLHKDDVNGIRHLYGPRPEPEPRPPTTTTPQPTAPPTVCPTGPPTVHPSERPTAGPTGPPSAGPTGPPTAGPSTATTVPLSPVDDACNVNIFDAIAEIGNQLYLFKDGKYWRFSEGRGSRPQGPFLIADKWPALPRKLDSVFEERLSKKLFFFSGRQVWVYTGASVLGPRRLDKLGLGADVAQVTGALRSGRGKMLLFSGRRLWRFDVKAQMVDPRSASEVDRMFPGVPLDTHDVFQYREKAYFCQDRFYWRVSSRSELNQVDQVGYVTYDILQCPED
- protocol: In vitro MMP inhibition analysis (fluorogenic peptide substrate cleavage), Ki
- Format: biochemical
- applied conditions: Table 2
Provide the recorded pKi for the entries that follow.
Numbers only, as −log10 of the molar value.

Look at each molecule and report its pKi.
1. CC(C)NC(=O)c1ccc(-c2ccc(S(=O)(=O)C3(C(=O)NO)CCOCC3)cc2)nc1 [Example 204]
2. COCCN1CCC(C(=O)NO)(S(=O)(=O)c2ccc(-c3cnc(OCCC4CCCC4)cn3)cc2)CC1 [Example 200]
3. O=C(NO)C1(S(=O)(=O)c2ccc(-c3nc4ccccc4o3)cc2)CCOCC1 [Example 193]
4. O=C(NO)C1(S(=O)(=O)c2ccc(-c3ncc(CCC(F)(F)C(F)(F)F)cn3)cc2)CCOCC1 [Example 137]

Ans.
1: 7.93; 2: 9.19; 3: 7.94; 4: 8.94

----------
- target system: Human recombinant MMP-2 (Homo sapiens)
- Construct: made in house; host or cells: MMP-2-transfected p2AHT2 cells
- protocol: In vitro MMP inhibition analysis (fluorogenic peptide substrate cleavage), Ki
- Type: biochemical
- applied conditions: Table 1
I'd appreciate it if you could supply pKi values for the items below.
Give bare numbers, as −log10 of the molar value.

smiles text	target system	value type	measured number
COCCN1CCC(C(=O)NO)(S(=O)(=O)c2ccc(-c3ccc(CCC(F)(F)C(F)(F)F)cc3)cc2)CC1	Human recombinant MMP-2 (Homo sapiens)	pKi	9.68

// each listed molecule needs a value for pKi
1. O=C(NO)C1(S(=O)(=O)c2ccc(-c3ccc(OC(F)(F)C(F)F)cc3)cc2)CCOCC1
2. O=C(NO)C1(S(=O)(=O)c2ccc(-c3ccc(CCCC(F)(F)F)cn3)cc2)CCN(C2CC2)CC1

Ans.
10.21
9.80

----------
- target system: Human recombinant MMP-14 (Homo sapiens, UniProt P50281)
- Construct: The catalytic domain enzyme was expressed in E. coli inclusion bodies, solubilized in urea; made in house
- protocol: In vitro MMP inhibition analysis (fluorogenic peptide substrate cleavage), Ki
- Format: biochemical
- applied conditions: Table 2
value type: log10(Ki) (log10 of the value in nM)
Use the decimal logarithm of Ki (nM).

Example entries begin here.
smiles text	log10(Ki)
CCCCOc1cnc(-c2ccc(S(=O)(=O)C3(C(=O)NO)CCOCC3)cc2)cn1	2.20
CCCc1ccc(-c2ccc(S(=O)(=O)C3(C(=O)NO)CCOCC3)cc2)cc1	1.79
CN(C)C(=O)N1CCC(C(=O)NO)(S(=O)(=O)c2ccc(-c3ccc(CCC(F)(F)C(F)(F)F)cc3)cc2)CC1	2.64
O=C(NO)C1(S(=O)(=O)c2ccc(-c3ccc(OCCCC(F)(F)F)cc3)cc2)CCOCC1	2.77
O=C(NO)C1(S(=O)(=O)c2ccc(-c3nc4ccccc4o3)cc2)CCOCC1	1.99
CC(C)c1ccc(-c2ccc(S(=O)(=O)C3(C(=O)NO)CCOCC3)cc2)cc1	2.04
O=C(NO)C1(S(=O)(=O)c2ccc(-c3ncccn3)cc2)CCOCC1	3.27

In plain terms, CCCCCc1ccc(-c2ccc(S(=O)(=O)C3(C(=O)NO)CCOCC3)cc2)cc1 has a documented log10(Ki) of 2.79

----------
- target system: Human recombinant MMP-2 (Homo sapiens, UniProt P08253)
- Construct: made in house; host or cells: MMP-2-transfected p2AHT2 cells
- Sequence (P08253 110-660): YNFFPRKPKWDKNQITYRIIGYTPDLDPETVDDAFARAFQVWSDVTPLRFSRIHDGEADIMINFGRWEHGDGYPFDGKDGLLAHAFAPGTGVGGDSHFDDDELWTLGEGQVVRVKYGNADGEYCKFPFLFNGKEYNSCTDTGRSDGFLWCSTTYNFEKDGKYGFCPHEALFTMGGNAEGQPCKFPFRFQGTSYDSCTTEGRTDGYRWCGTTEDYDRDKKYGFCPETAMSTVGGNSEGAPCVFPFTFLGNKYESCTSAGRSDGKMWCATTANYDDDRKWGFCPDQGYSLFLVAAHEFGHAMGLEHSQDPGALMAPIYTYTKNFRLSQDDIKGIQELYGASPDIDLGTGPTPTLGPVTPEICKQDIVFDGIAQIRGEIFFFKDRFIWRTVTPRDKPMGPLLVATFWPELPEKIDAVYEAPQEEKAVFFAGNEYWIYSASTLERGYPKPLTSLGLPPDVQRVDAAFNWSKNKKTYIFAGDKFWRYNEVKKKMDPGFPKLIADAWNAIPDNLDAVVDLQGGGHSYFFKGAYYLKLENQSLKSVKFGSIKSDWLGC
- protocol: In vitro MMP inhibition analysis (fluorogenic peptide substrate cleavage), Ki
- Format: biochemical
- applied conditions: Table 2
value type: Ki (nM)
One number for each entry, in nM.

Previously resolved entries follow.
compound	target system	unit of measure	Ki
CCCc1ccc(-c2ccc(S(=O)(=O)C3(C(=O)NO)CCOCC3)cc2)cc1 [Example 87]	Human recombinant MMP-2 (Homo sapiens, UniProt P08253)	nM	0.158
O=C(NO)C1(S(=O)(=O)c2ccc(-c3cnc(N4CCCCC4)cn3)cc2)CCOCC1 [Example 131]	Human recombinant MMP-2 (Homo sapiens, UniProt P08253)	nM	0.89
COc1ccc(Cc2cnc(-c3ccc(S(=O)(=O)C4(C(=O)NO)CCOCC4)cc3)cn2)cc1 [Example 182]	Human recombinant MMP-2 (Homo sapiens, UniProt P08253)	nM	114

Sample O=C(N1CCCCC1)N1CCC(C(=O)NO)(S(=O)(=O)c2ccc(-c3ccc(CCC(F)(F)C(F)(F)F)cc3)cc2)CC1 [Example 175] ; Ki observed: 0.42

----------
- target system: Human recombinant MMP-9 (Homo sapiens)
- Construct: made in house; host or cells: MMP-9-transfected HT1080 cells (spent media)
- protocol: In vitro MMP inhibition analysis (fluorogenic peptide substrate cleavage), Ki
- Format: biochemical
- applied conditions: Table 2
- Experimental: Several compounds and salts were analyzed in an in vitro assay to determine their ability to inhibit the MMP cleavage of peptide substrates. Inhibition constant (Ki) were calculated from the assayed compound-MMP interactions. […] The assays from which the Ki determinations were made were performed as follows. […] In the absence of MMP inhibitory activity, substrate (I) was cleaved at the Gly-Leu bond resulting in an increase of relative fluorescence. […]
Sorting guide: entries reporting Ki beneath 20 nM go in the Criterion met pile, the rest go in the Criterion not met pile.

Reference set, count: 3
compound	target system	group label
O=C(NO)C1(S(=O)(=O)c2ccc(-c3ccc(OCC(F)(F)C(F)F)c(C(F)(F)F)c3)cc2)CCOCC1 [Example 85]	Human recombinant MMP-9 (Homo sapiens)	Criterion not met
COc1ccc(Cc2cnc(-c3ccc(S(=O)(=O)C4(C(=O)NO)CCOCC4)cc3)cn2)cc1 [Example 182]	Human recombinant MMP-9 (Homo sapiens)	Criterion not met
O=C(NO)C1(S(=O)(=O)c2ccc(-c3ccc(-c4ccc(OC(F)(F)F)cc4)cn3)cc2)CCN(C2CC2)CC1 [Example 145]	Human recombinant MMP-9 (Homo sapiens)	Criterion met

Qu. API: query returns whether the compound falls strictly under 20 nM in Ki. Query: Cc1nc(CCc2ccc(-c3ccc(S(=O)(=O)C4(C(=O)NO)CCOCC4)cc3)cc2)no1 [Example 219]
Ans. Criterion met

Qu. Field: below-cutoff. Rule: recorded Ki strictly less than 20 nM. Subject: CCC(C)COc1ccc(-c2ccc(S(=O)(=O)C3(C(=O)NO)CCOCC3)cc2)cc1C(F)(F)F (centres unmarked) [Example 92]
Ans. Criterion not met

Qu. Find out if reported Ki for CN(C)C(=O)c1ccc2cc(-c3ccc(S(=O)(=O)C4(C(=O)NO)CCOCC4)cc3)ccc2c1 [Example 221] is less than 20 nM
Ans. Criterion met

Qu. For this compound, is Ki lower than 20 nM? O=C(NO)C1(S(=O)(=O)c2ccc(-c3ccc(F)c(C(F)(F)F)c3)cc2)CCOCC1 [Example 84]
Ans. Criterion not met

Qu. Strictly below 20 nM: is that where Ki of O=C(NO)C1(S(=O)(=O)c2ccc(-c3ccc(CCO)cc3)cc2)CCOCC1 [Example 98] sits?
Ans. Criterion met
